I'd be grateful if you could share measured T/C for these entries.
- System: L1210 leukemia ip in BDF1 mice, survival T/C
- protocol notes: NCI In Vivo Anticancer Drug Screen. Data for tumor model L1210 Leukemia (intraperitoneal) in B6D2F1 (BDF1) mice
- test parameters: endpoint: mean survival time; dose: 200.0 mg/kg/injection; schedule: Q01DX001 (ip); vehicle: saline; higher = longer survival
Toxic doses and inconclusive results are not listed.

Here is how some compounds turned out for T/C.
COC(=O)C1C(O)CC2CCC1[N+]2(C)C (stereo unspecified) = 100 % of control
COC1OC(COC(C)=O)C(OC(C)=O)C1OC(C)=O (stereo unspecified) = 104 % of control
O=C(C[n+]1ccc2ccccc2c1)c1ccc(-c2ccccc2)cc1 = 101 % of control
O=[N+]([O-])c1ccc(-c2cc3ccccc3[n+]([O-])c2)cc1 = 101 % of control

State the recorded T/C for every item in the following list.
1. CC(Br)CCON1C(=O)c2ccccc2C1=O (stereo unspecified)
2. O=[N+]([O-])c1cc2cnn(CCl)c2cc1[N+](=O)[O-]

Return:
["96 % of control", "111 % of control"]
